Reported values of Kd for individual entries
Assayed System: biotinylated human DLL3 protein expressed as a human IgG1 fusion protein (human) (UniProt Q9NYJ7)
Sequence (Q9NYJ7 other isoform, or with tags, fused parts or gaps): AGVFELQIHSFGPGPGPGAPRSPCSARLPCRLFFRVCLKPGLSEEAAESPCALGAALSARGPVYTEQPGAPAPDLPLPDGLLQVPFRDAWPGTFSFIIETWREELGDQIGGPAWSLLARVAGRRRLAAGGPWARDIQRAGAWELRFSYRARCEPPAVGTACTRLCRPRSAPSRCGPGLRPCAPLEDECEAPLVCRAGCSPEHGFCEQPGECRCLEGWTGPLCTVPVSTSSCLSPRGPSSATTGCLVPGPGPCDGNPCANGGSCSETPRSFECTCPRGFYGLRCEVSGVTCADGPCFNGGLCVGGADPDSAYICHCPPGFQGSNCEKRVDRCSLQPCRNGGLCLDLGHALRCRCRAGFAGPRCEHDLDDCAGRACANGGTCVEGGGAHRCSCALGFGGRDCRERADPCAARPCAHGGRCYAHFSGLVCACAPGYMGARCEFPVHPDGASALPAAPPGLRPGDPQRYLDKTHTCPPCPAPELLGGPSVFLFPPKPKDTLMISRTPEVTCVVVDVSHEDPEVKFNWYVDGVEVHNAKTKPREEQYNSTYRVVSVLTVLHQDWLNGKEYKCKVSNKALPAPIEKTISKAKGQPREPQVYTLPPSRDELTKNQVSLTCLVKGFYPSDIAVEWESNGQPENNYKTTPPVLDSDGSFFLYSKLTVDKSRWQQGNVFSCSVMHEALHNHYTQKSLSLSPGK
Protocol Notes: Octet BLI; biotinylated huDLL3-IgG1 fusion on streptavidin tips; single 50 nM; conditioned medium
Just the number in nM, nothing appended.

• anti-DLL3 trispecific protein 4B011 (protein, part only; not given: CD3 fragment and albumin sdAb, part only) chain, part: EVQLVESGGGLVQPGGSLTLSCAASGSSVTFLSMAWYRQAPGKKRELVAGISADGSTVYIDSVKGRFTISRDNAKNSVYLQMNSLRAEDTAVYYCYAYRWTTRGTYWGQGTLVTVSSGGGGSGGGSGGGGSGGGSHHHHHH = 3.9
• anti-DLL3 trispecific protein 1A010 (protein, part only; not given: anti-CD3 fragment and anti-albumin domain, part only) chain, part: EVQLVESGGGLVQPGGSLTLSCVASGSTSSINAYGWYRRAPGKQRELVAGISSDGSKVYADSVKGRFTISRDNAKNSVYLQMNSLRAEDTAVYYCYYFRTVYGSSMRYWGQGTLVTVSSGGGGSGGGSGGGGSGGGSHHHHHH = 6.5
• anti-DLL3 trispecific protein 3A04 (protein, part only; not given: CD3 binder and albumin binder, part only) chain, part: EVQLVESGGGLVQPGGSLTLSCAASGSQVSFLSMAWYRQAPGKKRELVAGISRDGSTDYIDSVKGRFTISRDNAKNSVYLQMNSLRAEDTAVYYCYAYRWTTRYIYWGQGTLVTVSSGGGGSGGGSGGGGSGGGSHHHHHH = 9.2
• anti-DLL3 trispecific protein 4C07 (protein, part only; not given: anti-CD3 and anti-albumin domains, part only) chain, part: EVQLVESGGGLVQPGGSLTLSCAASGSKVSFLSMAWYRQAPGKKRELVAGISADGSKDYIDSVKGRFTISRDNAKNSVYLQMNSLRAEDTAVYYCYAYRWTTRLTYWGQGTLVTVSSGGGGSGGGSGGGGSGGGSHHHHHH = 7.5
• anti-DLL3 trispecific protein 1E08 (protein, part only; not given: anti-CD3 fragment and anti-albumin sdAb, part only) chain, part: EVQLVESGGGLVQPGGSLTLSCVASGKTSSINAMGWYRRAPGKQRELVAGISSDGSKVIADSVKGRFTISRDNAKNSVYLQMNSLRAEDTAVYYCYYFRTVLGSSMRYWGQGTLVTVSSGGGGSGGGSGGGGSGGGSHHHHHH = 9.4

Read off the recorded Kd for anti-DLL3 trispecific protein 4C010 (protein, part only; not given: CD3 binder and albumin binder, part only) chain, part: EVQLVESGGGLVQPGGSLTLSCAASGSKVSFMSMAWYRQAPGKKRELVAGISADGSTDYIDSVKGRFTISRDNAKNSVYLQMNSLRAEDTAVYYCYAYRWTTRLTYWGQGTLVTVSSGGGGSGGGSGGGGSGGGSHHHHHH
7

Read off the recorded Kd for anti-DLL3 trispecific protein 1F011 (protein, part only; not given: anti-CD3 fragment and anti-albumin sdAb, part only) chain, part: EVQLVESGGGLVQPGGSLTLSCVASGSTSSINAIGWYRRAPGKQRELVAGISSDGSKVYADSVKGRFTISRDNAKNSVYLQMNSLRAEDTAVYYCYYFRTVKGSSMRYWGQGTLVTVSSGGGGSGGGSGGGGSGGGSHHHHHH
5

// data source = patent US20200095340A1
